Tested on: NCI-H460 lung
Experiment: NCI tumour cell line growth inhibition, 48 h
measurement-name: TGI

| molecule | measurement-name | observed |
| --- | --- | --- |
| CCCCCC(CO)C(O)(C(F)(F)F)C(F)(F)F (centres undefined) | TGI | > 10 µM |

Lab note: `c1ccc(Nc2nnc(Cn3ccc4ccccc43)s2)cc1` gave TGI of > 100 µM

Lab book: TGI of `COc1cc(Nc2cnc3cc(F)c(F)cc3n2)cc(OC)c1` noted as > 100 µM

TGI reported for this molecule `COc1ccc(-c2ccc(/C=N/n3c(COc4ccc(Cl)cc4Cl)nn(CN4CCN(C)CC4)c3=S)o2)c([N+](=O)[O-])c1` : 45.1 µM

* * *

Test system: RPMI-8226 leukemia
Experiment: NCI tumour cell line growth inhibition, 48 h
Listing of entries alongside the reported TGI.
Please reply with the bare figure in µM and do not write the unit itself.

| compound | measurement-name | observed |
| --- | --- | --- |
| C=C1CC(C)(COc2ccc3ccc(=O)oc3c2)OC1=O (stereo unspecified) | TGI | 4.7 |
| c1ccc2c(c1)-c1ccccc1C2N1CC2CCC(CC2)C1 | TGI | 46 |

Kindly review the next compound as well.
TGI value, target or system RPMI-8226 leukemia, for `Cc1cc(I)cc(CN(C)CCN2CCCC2)c1O` : 46.2

* * *

Test system: MCF7 breast
Assay: NCI tumour cell line growth inhibition, 48 h
# key: entry, value: GI50

These solved cases illustrate the format of a correct answer.
| compound-structure | test-system | observed |
| --- | --- | --- |
| NC(=N\N=C/c1cccc([N+](=O)[O-])c1)/C(N)=N\N=C/c1cccc([N+](=O)[O-])c1 | MCF7 breast | > 100 µM |
| COc1ccc(-c2ccc(/C=N/n3c(COc4ccc(Cl)cc4Cl)nn(CN4CCN(C)CC4)c3=S)o2)c([N+](=O)[O-])c1 | MCF7 breast | 10 µM |
| COc1ccc(-c2nc3ncccn3c2/C=C/C(=O)c2cc(OC)c(OC)c(OC)c2)cc1 | MCF7 breast | 1.14 µM |

Here's the next entry for you.
# compound `COc1cccc(-c2nc3sccn3c2-c2ccnc(NCCNS(=O)(=O)c3ccccc3)c2)c1` ; its GI50 = 3.14 µM

* * *

System: OVCAR-4 ovarian
Assay: NCI tumour cell line growth inhibition, 48 h
Entries and their TGI values follow.

// TGI value for `C(=NCc1ccccc1)c1ccccc1-c1ccccc1C=NCc1ccccc1` : > 10 µM

Record CCOC(=O)c1c(-c2ccc(O)c(OC)c2)c(C#N)c(=S)n(C2OC(COC(C)=O)C(OC(C)=O)C(OC(C)=O)C2OC(C)=O)c1-c1ccccc1 (stereo unspecified) , field TGI: > 100 µM

Record summary for `COC(=O)c1ccc(N=NN(C)COc2ccc([N+](=O)[O-])cc2)cc1` : reported TGI = > 100 µM

Query O=C1CCC2CCC1C2 (stereo unspecified) yields TGI of > 100 µM

// sample `COc1cccc2c(Nc3ccc(S(=O)(=O)NC(C)=O)cc3)c3ccc([N+](=O)[O-])cc3nc12` , its TGI was > 100 µM

Per the record, `COC(=O)c1c2c(c(C)[n+]([O-])c1C)C(=O)C=C(NCc1ccc(OC)cc1)C2=O` has TGI of 1.79 µM

The reported value for `Nc1nc(=S)[nH]c(C(=O)Nc2ccc(Cl)c(Cl)c2)c1-c1ccc(Cl)cc1` in terms of TGI is > 100 µM

`C=C(Br)CN(C(C)=O)C1CCCCC1` has a reported TGI of > 100 µM

The molecule listed as `COc1ccc(C2=C(N)c3c(OC)cccc3C2=O)cc1` shows TGI equal to > 100 µM

Note to self: TGI recorded for COC(=O)C12C(=O)O[C@H](C)C1(O)C(C)C(=O)N2C (stereo partly specified) was > 100 µM

The molecule identified as `N#Cc1sc2c(c1OC(=O)c1cccs1)c(=O)n(-c1ccccc1)c(=S)n2-c1ccccc1` registered its TGI at 73.5 µM

Note to self: TGI recorded for `Cc1cccc(C)c1NC(=S)NC=C(C(N)=O)C(N)=O` was > 100 µM

* * *

Test system: NCI/ADR-RES ovarian
Experiment: NCI tumour cell line growth inhibition, 48 h; in the data active = GI50 below about 0.43 µM; inactive = the rest
Lab note: assign the record to one of class 1 = active, class 0 = inactive

Please review the following examples before continuing.
| compound | class-assignment |
| --- | --- |
| Cc1cc(I)cc(CN(C)CCN2CCCC2)c1O | class 0 |
| COc1cc2c(cc1OCCCCCCN1CCN(c3ncnc4ccccc34)CC1)N=CC1CCCN1C2=O (stereo not drawn) | class 0 |
| O=c1[nH]ccc2nc(N3CCC(O)CC3)nc(Nc3cccc(C(F)(F)F)c3)c12 | class 0 |

Req: Recorded test outcome, item `COc1cc2c(Oc3ccc4[nH]c(C)cc4c3F)ccnc2cc1OCC1(N)CC1`
Resp: class 0

Req: What is the recorded call for this compound in the test? `COC(=O)c1c2c(c(C)[n+]([O-])c1C)C(=O)C=C(NCc1ccc(OC)cc1)C2=O`
Resp: class 0

Req: Outcome logged for `COc1cc2cc(C(=O)Nc3cc(N)c4ccccc4c3CCCl)[nH]c2c(OC)c1OC` in this assay:
Resp: class 1

Req: What is the recorded call for this compound in the test? `O=C(Nc1cc[c]([Sb](=[O])([OH])[OH])cc1)c1ccccc1`
Resp: class 0

Req: Which outcome was assigned to `NC(=N\N=C/c1cccc([N+](=O)[O-])c1)/C(N)=N\N=C/c1cccc([N+](=O)[O-])c1` in this test?
Resp: class 0

Req: Which outcome was entered for the compound `C=CCN1C=CC(=O)[C@H](O[Si](C)(C)C(C)(C)C)[C@@H]1/C=C/c1ccccc1` in this test?
Resp: class 0

Req: Look up the recorded call for `C=C[C@H]1CCC/C=C/[C@@H]2C[C@H](O)C[C@H]2[C@H](O)/C=C/C(=O)O1` in this test.
Resp: class 1

Req: Hi team, can someone confirm the assay call for O=CN1N=C(c2ccc(Cl)cc2)CC1c1cccc(Nc2ccnc3cc(Cl)ccc23)c1 (stereo not drawn) ?
Resp: class 0

Req: # lookup: test call for `CCN=c1cc2sc3cc(NCC)c(C)cc3nc-2cc1C`
Resp: class 0

Req: Test call for this compound, please: `O=C(Nc1ccc(F)cc1F)c1cc(Br)ccc1O`
Resp: class 0

Req: Which result was noted for this compound in the test: Cc1cc(N2CCCC2)nc(NC2CCCC(Nc3ccnc4cc(Cl)ccc34)C2)n1 (stereo not drawn)
Resp: class 0

Req: What was the test verdict on `Cc1cc(-c2nnc(N)nc2-c2ccc(F)cc2)cc(Cl)n1` ?
Resp: class 0

Req: Hey, what did the test say about `COc1ccc(-c2ccc(/C=N/n3c(COc4ccc(Cl)cc4Cl)nn(CN4CCN(C)CC4)c3=S)o2)c([N+](=O)[O-])c1` ?
Resp: class 0

Req: Hi, do you know how `c1cc(OCCN2CCCCC2)ccc1CNc1ccc2nc(CCC3CCCCC3)[nH]c2c1` came out in this test?
Resp: class 0

Req: Entry `NC(=O)c1ccc2c(-c3ccnc(NCCCO)n3)c(-c3ccc(F)cc3)nn2c1` : call = ?
Resp: class 0

* * *

Test system: SK-OV-3 ovarian
Experiment: NCI tumour cell line growth inhibition, 48 h; in the data active = GI50 below about 0.43 µM; inactive = the rest
Reply using exactly one outcome from active, inactive

Examples with answers:
| molecule | class-assignment |
| --- | --- |
| O=c1[nH]ccc2nc(N3CCC(O)CC3)nc(Nc3cccc(C(F)(F)F)c3)c12 | inactive |
| COc1ccc(-c2ccc(/C=N/n3c(COc4ccc(Cl)cc4Cl)nn(CN4CCN(C)CC4)c3=S)o2)c([N+](=O)[O-])c1 | inactive |
| COc1cccc(-c2nc3sccn3c2-c2ccnc(NCCNS(=O)(=O)c3ccccc3)c2)c1 | inactive |
| CC[O-].CC[O-].O=C1C(c2ccccc2)=C([O-])c2ccccc21.O=C1C(c2ccccc2)=C([O-])c2ccccc21.[Ti+4] | inactive |
| O=C(N/N=C/c1ccccc1Cl)c1ccccc1Nc1ccnc(C(F)(F)F)c1 | inactive |
| C=CCN1C=CC(=O)[C@H](O[Si](C)(C)C(C)(C)C)[C@@H]1/C=C/c1ccccc1 | inactive |
| O=C([CH-]C(=O)c1ccccc1)c1ccccc1.O=C([CH-]C(=O)c1ccccc1)c1ccccc1.O=C([CH-]C(=O)c1ccccc1)c1ccccc1.[OH3+].[Y+3] | inactive |
| COc1c(Cl)c2c(c(OC)c1OC)-c1ccc(SC)c(=O)cc1[C@@H](NC(=O)OCC(F)(F)F)CC2 | active |
| O=CN1N=C(c2ccc(Cl)cc2)CC1c1cccc(Nc2ccnc3cc(Cl)ccc23)c1 (stereo not given) | inactive |

Moving on to the next molecule.
Req: What did this assay record as the result for `CCN=c1cc2sc3cc(NCC)c(C)cc3nc-2cc1C` ?
Resp: inactive
